- Tested on: Wolbachia pipientis
- method-notes: Anti-Wolbachia Cell-Based Screen
- Format: functional
- Parameters: scale not given: in the data most compounds retested in dose-response had high values
- setup-conditions: 5 µM
In all, about 48,000 compounds went through this assay and about 13,000 (27%) showed an effect of 50% or more. The list shows a part of the results.

compound | unit | Percent Effect
Cc1nc(C)n(CC2CCCN(Cc3ccc(F)cc3C#N)C2)n1 (centres undefined) | % | 96.96
CCC(CC(=O)Nc1ccc2c(c1)CC(=O)N2)c1ccccc1 (centres undefined) | % | 3.416
O=C(COc1ccccc1)N(Cc1ccncc1)C1CC1 | % | -3.212
COc1ccc2c(c1)C(NCCc1ccccn1)CCCO2 (centres undefined) | % | 1.37
COCc1cc(N2CCN(Cc3ccncc3)CC2)n2nccc2n1 | % | 2.178
Cl.NCc1cc(-c2ccccc2)n2nccc2n1 | % | 106.1
Cc1nc(C)n(CC2CCCN2Cc2ccc(F)cc2C#N)n1 (centres undefined) | % | -2.788
CC(C)CS(=O)(=O)CC(=O)N(C)Cc1ccc(OC(F)F)cc1 | % | -10.21
CN(C)C1CCN(c2cc(-c3ccccc3)nc3ccnn23)C1 (centres undefined) | % | -6.733
O=C1NCCN(Cc2ccoc2)C1CC(=O)N1CCc2sccc2C1 (centres undefined) | % | -12.03
Cc1nc(C)n(CC2CN(c3ncnc4[nH]ccc34)CCO2)n1 (centres undefined) | % | 9.938
NC(=O)c1nnn(-c2ccc(Cl)cc2)n1 | % | 106
CC(=O)N1CC[C@]2(O)CCN(Cc3nc(C)c[nH]3)C[C@@H]2C1 | % | -2.174
CCCc1cc(CNc2cc(CCC)nc3ccnn23)on1 | % | -13.04
CN(c1ncc(S(N)(=O)=O)s1)C1CCc2ccccc21 (centres undefined) | % | 0.8223
Cc1nc(C)n(CC2CCCN(Cc3cc(C#N)ccc3F)C2)n1 (centres undefined) | % | 126.4
COc1cc2c(cc1OC)S(=O)(=O)N(Cc1ccc(C)cc1)C2=O | % | -15.41
COCc1cc(N2CCOCC2)n2nccc2n1 | % | 9.055
CCc1cc(NC(CCO)c2ccc(OC)cc2)n2nccc2n1 (centres undefined) | % | 6.902
CN1CCN(c2cc(CNCc3cccc4c3OCO4)ccn2)CC1 | % | 11.73
Cc1ncsc1CCN(C)C(=O)CN1CC2(CCNCC2)OC1=O | % | -5.863
CS(=O)(=O)N1CCC2(CC1)COC(COc1cccnc1)C2.O=C(O)C(F)(F)F (centres undefined) | % | -9.864
Cc1cccc2c1cnn2CCCNC(=O)C(C)C | % | -3.766
CNCC[C@H]1CC(C)(C)Oc2ccc(OCC3CC3)cc21 | % | 114.8

###

- Test system: Wolbachia pipientis
- method-notes: Anti-Wolbachia Cell-Based Screen
- Format: functional
- Set-up: scale not given: in the data most compounds retested in dose-response had high values
- setup-conditions: 5 µM
Out of some 48,000 compounds screened, about 13,000 (27%) showed an effect of 50% or more. The list shows a part of the results.
quantity-measured: Percent Effect (%)

molecule | test-target | endpoint-value
NC(=O)N1CCC2(CCN(C(=O)c3cccnc3)CC2)C1.O=C(O)C(F)(F)F | Wolbachia pipientis | 118.8
CC(C)N1CCC(CC(=O)NC(C(=O)O)c2ccc(F)cc2)CC1 (stereo not given) | Wolbachia pipientis | 7.704
CCN1CCN(C2CCN(Cc3cc(C)on3)CC2)C1=O | Wolbachia pipientis | -12.89
Cc1cc(OC(F)F)c(C(=O)NCC(O)c2cccc(F)c2)s1 (stereo not given) | Wolbachia pipientis | -16.7
N#Cc1cccc(N2CC3(CCN(C(=O)c4cccnc4)C3)CC2=O)c1.O=C(O)C(F)(F)F (stereo not given) | Wolbachia pipientis | 6.163
CN(CC1CCN(CCO)CC1)CC(O)c1ccc(F)cc1 (stereo not given) | Wolbachia pipientis | 8.04
Cn1ccc(CN2CCC(NC(=O)NC3CCCCC3)CC2)cc1=O | Wolbachia pipientis | -14.97
CC(C)CN1CCN(Cc2nc3c(s2)CCCC3)[C@H]2CS(=O)(=O)C[C@H]21 | Wolbachia pipientis | -7.173
Cc1ccc(CN2CCC3(CC2)CCN(C(=O)c2cccnc2)C3)o1.O=C(O)C(F)(F)F | Wolbachia pipientis | 93.46
CN1CCC(Cc2noc(-c3cn(Cc4ccc(F)cc4)nn3)n2)CC1 | Wolbachia pipientis | -9.878
CC(C)N1CCC(Cc2cc(-c3ccccc3C(=O)O)ncn2)CC1 | Wolbachia pipientis | -18.63
CC(C)c1ccc(CNC(c2ccc(F)cn2)C(C)C)cc1 (stereo not given) | Wolbachia pipientis | 100.5
CC(C)(C(=O)N1CCC(CS(N)(=O)=O)CC1)c1ccccc1F | Wolbachia pipientis | -25.38
Cn1ccc(CN2CCC(CC(=O)N3CCCC3)CC2)cc1=O | Wolbachia pipientis | 63.9
Cn1ccc(CN2CCC(Cc3ccccc3)CC2)cc1=O | Wolbachia pipientis | 141.3
CC(C)c1cc(CN2CCC(CC(=O)O)CC2)no1 | Wolbachia pipientis | 25.42
Cc1cc(NCCS(C)(=O)=O)n2nc(C)cc2n1 | Wolbachia pipientis | -11.18
Cc1[nH]ncc1C(C)NCc1ccc(F)cc1 (stereo not given) | Wolbachia pipientis | -5.411
CC(C)(N)C(=O)N1CCC(c2nccnc2Oc2ccccc2F)CC1 | Wolbachia pipientis | 77.45
Fc1cnc(N2CC[C@@H]3O[C@H](COCc4ccccn4)CC[C@@H]32)nc1.O=C(O)C(F)(F)F.O=C(O)C(F)(F)F | Wolbachia pipientis | -8.752
